# study_target: Glucocorticoid receptor (Homo sapiens) (UniProt P04150)
# Sequence (P04150 whole entry, looked up): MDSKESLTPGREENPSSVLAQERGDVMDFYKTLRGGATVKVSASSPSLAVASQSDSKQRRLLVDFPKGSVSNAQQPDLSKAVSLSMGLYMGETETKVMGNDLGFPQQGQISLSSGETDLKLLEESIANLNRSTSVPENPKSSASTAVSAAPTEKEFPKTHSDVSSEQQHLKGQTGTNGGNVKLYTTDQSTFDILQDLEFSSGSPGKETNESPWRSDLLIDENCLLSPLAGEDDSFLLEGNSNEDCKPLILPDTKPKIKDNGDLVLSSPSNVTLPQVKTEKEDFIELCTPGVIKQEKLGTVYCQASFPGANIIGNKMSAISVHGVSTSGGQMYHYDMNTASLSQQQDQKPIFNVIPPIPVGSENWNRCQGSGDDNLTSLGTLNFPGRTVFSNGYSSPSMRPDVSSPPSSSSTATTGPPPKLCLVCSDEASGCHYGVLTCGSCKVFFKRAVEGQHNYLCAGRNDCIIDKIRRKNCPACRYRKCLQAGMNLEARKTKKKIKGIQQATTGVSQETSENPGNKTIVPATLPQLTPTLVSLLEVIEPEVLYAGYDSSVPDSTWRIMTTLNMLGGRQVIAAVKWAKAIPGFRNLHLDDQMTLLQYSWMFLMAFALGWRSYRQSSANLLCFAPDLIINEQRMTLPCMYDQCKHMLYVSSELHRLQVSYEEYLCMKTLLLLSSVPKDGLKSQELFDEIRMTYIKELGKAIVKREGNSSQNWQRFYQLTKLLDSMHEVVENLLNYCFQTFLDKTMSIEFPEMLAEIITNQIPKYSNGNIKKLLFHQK
# measurement_description: GR-GFP Redistribution (AID 450)
# condition_info: U2OS GR-GFP nuclear translocation, laser cytometry, 2 h
Active and inactive are the calls of the source.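 Rule for the calls: active = compounds whose dose series gives a full or clear partial fitted curve of increased nuclear translocation; inconclusive = weak partial curve or effect only at the top dose; inactive = no dose-dependent translocation response.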
One label from this list, please: active, inactive

Task: Hey, what did the test say about "C/C(=C\[C@@H](N)C(=O)O)CP(=O)(O)O" ?
Output: inactive

Task: Hey, what did the test say about "N[C@H](C(=O)O)c1cc(=O)[nH]o1" ?
Output: inactive

Task: Hey, what did the test say about "CCCN(CCC)[C@@H]1CCc2c(OC)cccc2[C@@H]1C" ?
Output: inactive

Task: Hey, what did the test say about "Cc1o[nH]c(=O)c1C[C@H](N)C(=O)O" ?
Output: inactive

----------
# study_target: Nucleoprotein (Lymphocytic choriomeningitis virus (strain Armstrong)) (UniProt P09992)
# Sequence (P09992 whole entry, looked up): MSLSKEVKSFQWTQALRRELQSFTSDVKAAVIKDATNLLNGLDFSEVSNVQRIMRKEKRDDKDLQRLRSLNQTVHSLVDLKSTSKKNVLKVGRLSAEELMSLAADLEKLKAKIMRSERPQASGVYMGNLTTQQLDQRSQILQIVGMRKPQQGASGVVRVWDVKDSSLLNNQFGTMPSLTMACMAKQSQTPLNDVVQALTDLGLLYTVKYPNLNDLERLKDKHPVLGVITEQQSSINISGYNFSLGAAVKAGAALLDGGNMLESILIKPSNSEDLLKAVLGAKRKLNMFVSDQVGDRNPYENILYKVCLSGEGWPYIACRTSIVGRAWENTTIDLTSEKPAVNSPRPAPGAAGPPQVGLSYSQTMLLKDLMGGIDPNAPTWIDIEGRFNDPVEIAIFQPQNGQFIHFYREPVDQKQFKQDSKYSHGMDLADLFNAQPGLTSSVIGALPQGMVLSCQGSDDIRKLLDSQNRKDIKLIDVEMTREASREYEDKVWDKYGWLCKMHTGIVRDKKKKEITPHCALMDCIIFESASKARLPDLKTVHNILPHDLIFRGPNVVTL
# measurement_description: qHTS for Inhibitors of the Functional Ribonucleoprotein Complex (vRNP) of Lymphocytic Choriomeningitis Arenaviruses (LCMV): LCMV Primary Screen - GLuc reporter signal (AID 1347086); note: nearly all actives have a fitted effect of over 70% in size
# condition_info: LCMV minigenome vRNP cell assay, Gaussia luciferase reporter; series mostly up to 57.5 µM
Results filed as inconclusive are left out. Activity calls are given as the source filed them. The call rests on the fitted dose curve.
One label from this list, please: active, inactive

The following molecules have reported results that may help.
molecule	assigned_class
Nc1ncnc2ccccc12	active
Oc1ccc(C2CNCc3sccc32)cc1O (stereo unspecified)	inactive
CCCCCCCCCCCC(CC1OC(=O)C1CCCCCC)OC(=O)C(CC(C)C)NC=O (stereo unspecified)	inactive
C=Cc1c(C)c2cc3nc(cc4[nH]c(cc5nc(cc1[nH]2)C(C)=C5CCC(=O)O)c(CCC(=O)OC)c4C)[C@@]1(C)C3=CC=C(C(=O)OC)[C@H]1C(=O)OC	active
Nc1nc(F)nc2c1ncn2[C@@H]1O[C@H](COP(=O)(O)O)[C@@H](O)[C@H]1O	inactive
CNc1ncnc2c1ncn2[C@@H]1O[C@H](CO)C(O)[C@H]1O (stereo partly specified)	inactive
CC(C)C[C@@H](N)[C@H](O)C(=O)N[C@H](C(=O)N[C@H](C(=O)N[C@@H](CC(=O)O)C(=O)O)C(C)C)C(C)C	inactive
O=C(O)c1cc(=O)cc(C(=O)O)[nH]1	inactive

Task: Hey, what did the test say about "NC[C@H]1O[C@H](O[C@H]2[C@@H](O)[C@@H](O[C@H]3O[C@H](CO)[C@@H](O)[C@H](N)[C@@H]3O)[C@H](N)C[C@@H]2N)[C@H](N)C[C@H]1O" ?
Output: inactive

Task: Hey, what did the test say about "O=Nc1ccc2oc(=O)ccc2c1" ?
Output: inactive

----------
# measurement_description: Vero-766 cells viability qHTS against the NCATS CANVASS Library: Counterscreen for Zika virus inhibition assay (AID 1347394); note: nearly all actives have a fitted effect of over 60% in size
# condition_info: Vero 766 viability, CellTiter-Glo luminescence, 72 h; series mostly up to 46.1 µM
Results filed as inconclusive are left out. The source made the active and inactive calls. Calls follow the shape of the dose curve; as a rule, active = well fitted cell-killing curve with a large enough effect; inconclusive = small, poorly fitted or top-dose-only effect; inactive = flat fitted curve, though single readings scatter.
One label from this list, please: active, inactive

The following compounds have reported results that may help.
compound	assigned_class
NCCc1ccccc1	inactive
CC1=CC(=O)C2=C(C)C[C@H](O)[C@@H]3[C@H](OC(=O)[C@@H]3C)[C@@H]12	inactive
CO[C@@H](/C=C/CC/C=C/C(=O)O)[C@@H](O)[C@H](C)/C=C(\C)[C@@H](O)[C@H](C)C(=O)CCCC1CC(=O)NC(=O)C1	inactive
CCN1C[C@]2(C)CC[C@@H](O)[C@]34C1[C@H](C[C@H]23)C12CCC(CC14)[C@](O)(CO)[C@H]2O (some centres not stated)	inactive
COc1ccc(C23Oc4cc(OC)cc(OC)c4[C@](O)([C@H](c4ccccc4)C2C(=O)NCCCCNC(=O)c2ccccc2)[C@@H]3O)cc1 (some centres not stated)	inactive
CC[C@@H]1CN2CC[C@@]3(O)C(=Nc4cccc(OC)c43)[C@@H]2C[C@@H]1/C(=C\OC)C(=O)OC	inactive

Task: Hey, what did the test say about CO[C@H](c1ccccc1)[C@H]1NC(=O)C(C)NC(=O)C(C[C@@H](C)CO)N(C)C(=O)[C@@H](C(O)c2cn(C(C)(C)C3CO3)c3ccccc23)NC(=O)C(C(C)C=C(C)C)NC(=O)C(CC(C)C)N(C)C(=O)C(C(C)C)NC1=O (some centres not stated) ?
Output: inactive

Task: Hey, what did the test say about "CO[C@@H](/C=C/CC/C=C/C(=O)O)[C@@H](O)[C@H](C)[C@@H](O)/C(C)=C/[C@H](C)C(=O)CCCC1CC(=O)NC(=O)C1" ?
Output: inactive

Task: Hey, what did the test say about "COc1ccc2c3c([nH]c2c1)C(C)=NCC3" ?
Output: inactive

Task: Hey, what did the test say about "CN(C)Cc1c[nH]c2ccccc12" ?
Output: inactive

Task: Hey, what did the test say about "C[C@@H]1CC[C@@H](c2ccoc2)N2C[C@@]3(CC[C@@H]12)CS[C@@]1(CC[C@H]2[C@H](C)CC[C@@H](c4ccoc4)N2[C@@H]1O)C3" ?
Output: active

Task: Hey, what did the test say about "C=C1[C@@H](C)[C@H]2[C@H](Cc3ccccc3)NC(=O)[C@]23OC(=O)/C=C/[C@H](O)CCC[C@@H](C)C/C=C/[C@H]3[C@@H]1O" ?
Output: active
